Values compiled from ChEMBL document CHEMBL6134819.

Assay: Half life in male Sprague-Dawley rat at 10 mg/kg, po measured up to 24 hrs by LC-MS/MS analysis
Assay type: ADME, organism-based
Conditions: in vivo
RECORDED_ENDPOINT: half-life (h)
Reply numerically in h, unit not repeated.

Give its half-life value. Item: Cl.O=S(=O)(c1ccccc1)n1ncc2cc(-n3cc(CN[C@@H]4C[C@H]4c4ccc(F)c(F)c4)nn3)ccc21 1.44

* * *

Experiment: Solubility in PBS buffer at pH 7.4 measured after 2 hrs by LC-MS/MS analysis
Type: physicochemical
RECORDED_ENDPOINT: solubility at 2 h (µM)
Quick note: give the figure in µM, leave out the unit.

I would be grateful if you could share the reported solubility at 2 h for Cl.O=S(=O)(c1ccccc1)n1ncc2cc(-n3cc(CN[C@@H]4C[C@H]4c4ccc(F)c(F)c4)nn3)ccc21 . 1.43

* * *

Test: Metabolic stability in human liver microsomes assessed as intrinsic clearance measured up to 60 mins in presence of NADPH by LC-MS/MS analysis
Type: ADME, Microsome
Settings: read-out: CLH
RECORDED_ENDPOINT: CLint scaled (mL/min/kg)
Your answer is read as mL/min/kg, so omit the unit and give the number.

Record request: CLint scaled value, item Cl.O=S(=O)(c1ccccc1)n1ncc2cc(-n3cc(CN[C@@H]4C[C@H]4c4ccc(F)c(F)c4)nn3)ccc21 108

* * *

Assay: AUC (0 to infinity) in male Sprague-Dawley rat at 1 mg/kg, iv measured up to 24 hrs by LC-MS/MS analysis
Assay type: ADME, organism-based
Details: in vivo
RECORDED_ENDPOINT: AUC(0-inf) (ng·h/mL)
Report the figure in ng·h/mL without appending any unit label.

Entry Cl.O=S(=O)(c1ccccc1)n1ncc2cc(-n3cc(CN[C@@H]4C[C@H]4c4ccc(F)c(F)c4)nn3)ccc21 : reported AUC(0-inf) = ? 483

* * *

Test: Cmax in male Sprague-Dawley rat at 10 mg/kg, po measured up to 24 hrs by LC-MS/MS analysis
Assay type: ADME, organism-based
Details: in vivo
RECORDED_ENDPOINT: Cmax (ng/mL)
Return type: number; implicit unit ng/mL.

What does the data say about its Cmax? Entry: Cl.O=S(=O)(c1ccccc1)n1ncc2cc(-n3cc(CN[C@@H]4C[C@H]4c4ccc(F)c(F)c4)nn3)ccc21 89.8

* * *

Biological target: Lysine-specific histone demethylase 1A (Homo sapiens, UniProt O60341)
Experiment: Inhibition of human recombinant LSD1 (852 residues) incubated for 1 hr by HTRF method
Field: IC50. Provide a value for each of the molecules that follow.
All answers are understood in nM, so give the number only.

Quick one: IC50 for O=S(=O)(C1CCCCC1)n1ncc2cc(-n3cc(CN[C@@H]4C[C@H]4c4ccc(F)c(F)c4)nn3)ccc21 ? 4.82

Again, but for CCn1ncc2cc(-n3cc(CN[C@@H]4C[C@H]4c4ccc(F)c(F)c4)nn3)ccc21 3.8

Now try CC(=O)n1ncc2cc(-n3cc(CN[C@@H]4C[C@H]4c4ccc(F)c(F)c4)nn3)ccc21 . 8.4

One more molecule: Fc1ccc([C@@H]2C[C@H]2NCc2cn(-c3n[nH]c4ccccc34)nn2)cc1F 5.1

Now try Fc1ccc([C@@H]2C[C@H]2NCc2cn(-c3ccc4c(cnn4CC(F)(F)F)c3)nn2)cc1F . 1.59

Next molecule up: Fc1ccc([C@@H]2C[C@H]2NCc2cn(-c3cccc4[nH]ncc34)nn2)cc1F 6.63

Fc1ccc([C@@H]2C[C@H]2NCc2cn(-c3ccc4cn[nH]c4c3)nn2)cc1F ? 14.4

Quick one: O=C(C1CCCCC1)n1ncc2cc(-n3cc(CN[C@@H]4C[C@H]4c4ccc(F)c(F)c4)nn3)ccc21 15.9
